Tested on: A549/ATCC NSCLC
ASSAY_PROCEDURE: NCI-60 one-dose screen, 48 h
RECORDED_CONDITIONS: 10 µM unless noted
Compounds without any hit were thinned out: in the full panel of roughly 83,000, 20% have a hit. The source made the active and inactive calls. How the source made its calls: active means growth percent below 10; inactive means the rest.
One label from this list, please: 1 (yes) (active), 0 (no) (inactive)

// outcome(item) with item = O=c1c2ccccc2sc2c(N3CCCC3)nc3ccccc3c12
0 (no)

// outcome(item) with item = COc1cc(/C=C2/Oc3cc4occc4c(OC)c3C2=O)ccc1OCC(=O)Nc1ccncc1
0 (no)

// outcome(item) with item = O=C1C(SCCO)=C(SCCO)C(=O)N1c1ccc(-c2ccccc2)cc1
0 (no)

// outcome(item) with item = O=S(=O)(CCN1CCOCC1)Nc1cncc(-c2ccc3ncnc(Nc4ccc(F)c(Cl)c4)c3c2)c1
0 (no)

// outcome(item) with item = O=C(Cn1c2ccccc2c2ccncc21)N/N=C/c1c[nH]c2ccccc12
0 (no)

// outcome(item) with item = O=C1COc2ccccc2C(=O)N1CCCCN1CCCCC1
0 (no)

// outcome(item) with item = O=C(O)c1ccc(-n2cc(/C=N/Nc3ccccc3F)c(-c3ccc(O)cc3)n2)cc1
0 (no)

// outcome(item) with item = CC1=C[S+](c2ccccc2)c2cccc3cc4ccccc4c1c23 (stereo not drawn)
1 (yes)

// outcome(item) with item = C=CCOc1ccc(/C(Cl)=N/N=C(\Cl)c2cc(OC)c(OC)c(OC)c2)cc1
0 (no)

// outcome(item) with item = Cc1c(Cl)ccc2c(C(=O)Cl)cc(-c3ccccc3)nc12
0 (no)

// outcome(item) with item = CCn1c(SCC(=O)c2ccc(Br)cc2)nnc1-c1cc2c([nH]c3ccccc32)c(-c2cccc(O)c2)n1
0 (no)

// outcome(item) with item = O=C(Nc1cccc(-n2ccc3c(NC(=O)c4ccccc4)nccc32)c1)c1cc(N2CCOCC2)cc(C(F)(F)F)c1
1 (yes)

// outcome(item) with item = CC(=O)O[C@@H]1[C@@H](OC(C)=O)[C@H](OC(C)=O)CO[C@H]1Nc1cccc2ccccc12
0 (no)

// outcome(item) with item = CCNc1ncnc2n[nH]nc12
0 (no)

// outcome(item) with item = C[C@]12O[C@H]1[C@H](O)c1c(cc(O)c3c1C(=O)c1cccc(O)c1-3)C2=O
0 (no)

// outcome(item) with item = O=C(NCCNc1nccc(-c2c(-c3cccc(O)c3)nc3sccn23)n1)c1cccc(C(F)(F)F)c1
0 (no)

// outcome(item) with item = COc1ccc(C2CC(c3cc(Cl)c(C)cc3OC)=NN2c2ccc(S(N)(=O)=O)cc2)cc1OC (stereo not drawn)
0 (no)

// outcome(item) with item = COc1cc2ncnc(Oc3ccc(NC(=O)Nc4ccc(C5(C#N)CCCC5)cc4)c4ccccc34)c2cc1OC
0 (no)

// outcome(item) with item = COc1cc(-c2nc3ccccc3s2)ccc1OCc1nc2n(n1)S(=O)(=O)c1ccccc1N2c1ccccc1
0 (no)

// outcome(item) with item = CC(=O)N[C@@H](CNC(=O)c1cc(NC(=O)c2cc(NC(=O)c3cc(NC(=O)c4nccn4C)cn3C)cn2C)cn1C)CC(=O)Nc1cn(C)c(C(=O)Nc2cc(C(=O)Nc3cc(C(=O)Nc4cc(C(=O)NCCCN(C)CCCNC(=O)c5cccc(C(=O)O)c5)n(C)c4)n(C)c3)n(C)c2)n1
1 (yes)

// outcome(item) with item = O=C(NCCNc1nccc(-c2c(-c3cccc(O)c3)nc3sccn23)n1)c1ccc(N2CCOCC2)c(C(F)(F)F)c1
0 (no)

// outcome(item) with item = O=c1c2ccccc2sc2c(NCCN3CCOCC3)nc3ccccc3c12
0 (no)

// outcome(item) with item = CC1OC(n2c3ccccc3c3c4c(c5c6ccccc6[nH]c5c32)C(=O)N(CCN[C@@H]2CCC[C@H]2N)C4=O)CC(O)C1O (stereo partly drawn)
0 (no)

###

Test system: UACC-257 melanoma
ASSAY_PROCEDURE: NCI-60 one-dose screen, 48 h (100 = growth as untreated, 0 = no growth, -100 = all killed)
RECORDED_CONDITIONS: 10 µM unless noted
About 83,000 compounds went through this panel and 20% of them were active in at least one assay; those are over-represented in the sample as a whole.
Could you please report measured growth for the items listed next?
Numeric only. Scale: %

Returns the measured growth for the input compound. Input: CCc1cccc(C)c1NC(=O)c1sc2nc3c(cc2c1N)CCCCC3
71.7

Returns the measured growth for the input compound. Input: C=C1c2c(Cl)ccc(O)c2C(O)=C2C(=O)[C@]3(O)C(O)=C(C(N)=O)C(=O)[C@@H](N(C)C)[C@@H]3[C@@H](O)[C@H]12
-4.26

Returns the measured growth for the input compound. Input: Cc1cn(C2CC(N=[N+]=[N-])C(COP(=O)(O)OP(=O)(O)OP(=O)(O)O)O2)c(=O)[nH]c1=O (configuration not stated)
108

Returns the measured growth for the input compound. Input: CCCc1nn2c(CCC(=O)c3nc4ccc([N+](=O)[O-])cc4[nH]3)nnc2s1
113

Returns the measured growth for the input compound. Input: O=c1c(-c2ccc3c(c2)OCO3)coc2c(CO)c(O)ccc12
9.01

Returns the measured growth for the input compound. Input: CCCCOc1nc2ccc(Cl)cc2cc1/C=C/C(=O)/C=C/c1ccc(OC)cc1
89.7

Returns the measured growth for the input compound. Input: CN(C)CC/C=C1\c2ccccc2Sc2ccc(Cl)cc21
-54.4

###

Test system: SK-MEL-2 melanoma
ASSAY_PROCEDURE: NCI-60 one-dose screen, 48 h (100 = growth as untreated, 0 = no growth, -100 = all killed)
RECORDED_CONDITIONS: 10 µM unless noted
About 83,000 compounds went through this panel and 20% of them were active in at least one assay; those are over-represented in the sample as a whole.
Could you please report measured growth for the items listed next?
Numeric only. Scale: %

Returns the measured growth for the input compound. Input: Cc1nssc1=S
88.6

Returns the measured growth for the input compound. Input: Clc1ccc(OCc2nc(-c3ccccc3)n[nH]2)c(Cl)c1
103

Returns the measured growth for the input compound. Input: Cc1ccc2oc(=O)cc(C3C(C#N)=C(N)Oc4c3ccc3ccccc43)c2c1 (configuration not stated)
66.2

Returns the measured growth for the input compound. Input: CC(CCC(=O)O)[C@H]1CCC2C3C(=O)C[C@@H]4CC(=O)CC[C@]4(C)C3CC(=O)[C@@]21C (some centres not stated)
128

Returns the measured growth for the input compound. Input: C#C[C@H](O)/C=C/CCCCCCC#C[C@H](O)CC[C@@H](O)C#CCCCCCC/C=C/[C@@H](O)C#C
92.7

Returns the measured growth for the input compound. Input: CCCCCCCCN(CCCCCCCC)CC(O)c1cc(-c2ccccc2)nc2ccc(OC)cc12 (configuration not stated)
78.1

Returns the measured growth for the input compound. Input: N#CC1=C(N)Oc2c(ccc3ccccc23)C1c1cc(=O)oc2ccc(Cl)cc12 (configuration not stated)
43.6

###

Test system: IGROV1 ovarian
ASSAY_PROCEDURE: NCI-60 one-dose screen, 48 h
RECORDED_CONDITIONS: 10 µM unless noted
Compounds without any hit were thinned out: in the full panel of roughly 83,000, 20% have a hit. Calls of active or inactive are those of the source. The calls were made as follows: active = growth percent below 10; inactive = the rest.
One label from this list, please: active, inactive

// outcome(item) with item = Nn1c(SCC(=O)Nc2cc(Cl)c(Cl)cc2Cl)nnc1-c1cc(F)c(Cl)cc1Cl
inactive

// outcome(item) with item = COc1ccc(C[C@H](N)C(=O)N[C@@H]2[C@@H](CO)OC(n3cnc4c(N(C)C)ncnc43)[C@@H]2O)cc1 (some centres not stated)
active

// outcome(item) with item = COC(OC)C1(c2ccccc2)NC(=O)NC1=O (configuration not stated)
inactive

// outcome(item) with item = CCNc1cc(S(=O)(=O)O)ccc1C
inactive

// outcome(item) with item = Cc1ccc(-c2nc3c(N=Nc4ccc(S(N)(=O)=O)cc4)c(N)nn3c(N)c2C#N)cc1
inactive

// outcome(item) with item = CC(=O)Nc1ccc([I+]c2ccc([N+](=O)[O-])cc2)cc1
inactive

// outcome(item) with item = COc1cc(NC(=O)c2cc(OC)c3ccn(C)c3c2)cc2c1C[C@]1(C)CC[C@@H](O)C(C)(C)[C@H]1O2
inactive

###

Tested on: NCI/ADR-RES ovarian
ASSAY_PROCEDURE: NCI-60 one-dose screen, 48 h (100 = growth as untreated, 0 = no growth, -100 = all killed)
RECORDED_CONDITIONS: 10 µM unless noted
The panel holds about 83,000 compounds, 20% with a hit somewhere; the sample as a whole holds those more often.
QUANTITY_MEASURED: growth (%)
Numeric only. Scale: %

Returns the measured growth for the input compound. Input: Nc1nc2ccc(CNc3ccc(C(=O)NC(CC(=O)O)C(=O)O)cc3)cc2c(=O)[nH]1 (stereo unspecified)
33

Returns the measured growth for the input compound. Input: COc1cc(/C=C2/Oc3cc4occc4c(OC)c3C2=O)ccc1OCC(=O)Nc1ccncc1
107

Returns the measured growth for the input compound. Input: ClC1c2ccccc2CCc2ccccc21
116

Returns the measured growth for the input compound. Input: O=C(Nc1ccc(F)cc1)Nc1ccc(Br)c(C(F)(F)F)c1
1.19

Returns the measured growth for the input compound. Input: COc1ccccc1S(=O)(=O)Nc1ccc2c3c(cc(-c4ccoc4)nc13)C(=O)N2C
55.1

Returns the measured growth for the input compound. Input: O=C(O)c1ccc(-n2cc(/C=N/Nc3ccccc3F)c(-c3ccc(O)cc3)n2)cc1
80

Returns the measured growth for the input compound. Input: O=S(=O)(O)c1ccc(F)cc1
104

Returns the measured growth for the input compound. Input: O=C1c2ccccc2C(=O)c2c(NCCN=Cc3c(O)ccc4ccccc34)cccc21
85.5

Returns the measured growth for the input compound. Input: COc1ccc(NC(=O)COCCOCCNC[C@@H]2C(=O)O[C@H]3[C@H]2CC/C(COC(=O)OC/C2=C/CC[C@@]4(C)O[C@H]4[C@H]4OC(=O)[C@@H](CN(C)C)[C@@H]4CC2)=C\CC[C@@]2(C)O[C@@H]32)c(O)c1C(N)=O
101

Returns the measured growth for the input compound. Input: Nc1ncnc2c1c(-c1ccc(Oc3ccccc3)cc1)nn2C[C@@H]1SSC[C@H]1O
48.3

Returns the measured growth for the input compound. Input: CN(C)c1ncc(C#Cc2c(F)cccc2F)c2ccccc12
92.9

Reference source for all entries: PubChem BioAssay (NCI)
